B1: library; numbered along this chain (parent)
chain: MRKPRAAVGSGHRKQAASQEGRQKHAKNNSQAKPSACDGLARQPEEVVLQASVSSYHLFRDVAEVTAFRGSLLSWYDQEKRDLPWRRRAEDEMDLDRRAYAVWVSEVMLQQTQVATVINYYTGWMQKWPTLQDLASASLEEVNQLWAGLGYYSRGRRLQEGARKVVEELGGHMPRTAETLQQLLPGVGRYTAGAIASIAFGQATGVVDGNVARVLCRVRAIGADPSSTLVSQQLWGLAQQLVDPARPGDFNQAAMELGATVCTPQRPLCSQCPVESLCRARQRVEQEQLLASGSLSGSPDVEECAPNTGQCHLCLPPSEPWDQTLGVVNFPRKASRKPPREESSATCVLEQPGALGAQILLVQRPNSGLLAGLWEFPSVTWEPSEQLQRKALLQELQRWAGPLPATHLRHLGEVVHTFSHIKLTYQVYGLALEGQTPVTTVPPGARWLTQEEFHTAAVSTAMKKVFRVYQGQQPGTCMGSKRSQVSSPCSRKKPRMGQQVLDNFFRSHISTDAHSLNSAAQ

Variants of: B1
Assay: 8OG:A repair function score (normalized; synonymous = 0, nonsense = -1) (normalized log-likelihood score); higher = more repair activity (WT-like);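 further: cells sorted at 72 h after reporter transfection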
Conditions: with 8OG:A DNA repair reporter (GFP) in HEK-293 MUTYH KO cells
Assign class by 8OG:A repair function score: not lower than -0.08 means MET; lower than -0.08 means NOT MET.

Asked: Has V327N a recorded 8OG:A repair function score greater than or equal to -0.08?
Given back: NOT MET

Asked: Has R217A a recorded 8OG:A repair function score greater than or equal to -0.08?
Given back: NOT MET

Asked: Has K492I a recorded 8OG:A repair function score greater than or equal to -0.08?
Given back: MET

Asked: Has V468K a recorded 8OG:A repair function score greater than or equal to -0.08?
Given back: MET

Asked: Has L361K a recorded 8OG:A repair function score greater than or equal to -0.08?
Given back: NOT MET

Asked: Has L313Y a recorded 8OG:A repair function score greater than or equal to -0.08?
Given back: NOT MET

Asked: Has Q426M a recorded 8OG:A repair function score greater than or equal to -0.08?
Given back: NOT MET

Asked: Has E375Q a recorded 8OG:A repair function score greater than or equal to -0.08?
Given back: MET

Asked: Has G326Y a recorded 8OG:A repair function score greater than or equal to -0.08?
Given back: NOT MET

Asked: Has L290P a recorded 8OG:A repair function score greater than or equal to -0.08?
Given back: MET

Asked: Has E46R a recorded 8OG:A repair function score greater than or equal to -0.08?
Given back: MET

Asked: Has L373E a recorded 8OG:A repair function score greater than or equal to -0.08?
Given back: NOT MET
